- Test system: U251 human glioblastoma cell line
- assay_details: in vitro FM-HCR assay of MGMT activity (mPlum O^6MeG reporter plasmid)
- Assay type: cell-based
- condition_label: MGMT activity (a.u.) in O^6BG divided by DMSO x 100; higher values indicate resistance
Item-by-item account of Relative MGMT activity (%)
Just the number please, in %, no unit attached.

* S159I: MGMT polypeptide with mutation S159I (protein) MDKDCEMKRTTLDSPLGKLELSGCEQGLHEIKLLGKGTSAADAVEVPAPAAVLGGPEPLMQCTAWLNAYFHQPEAIEEFPVPALHHPVFQQESFTRQVLWKLLKVVKFGEVISYQQLAALAGNPKAARAVGGAMRGNPVPILIPCHRVVCSSGAVGNYIGGLAVKEWLLAHEGHRLGKPGLGGSSGLAGAWLKGAGATSGSPPAGRN | 44.6
* Y158H: MGMT polypeptide with mutation Y158H (protein) MDKDCEMKRTTLDSPLGKLELSGCEQGLHEIKLLGKGTSAADAVEVPAPAAVLGGPEPLMQCTAWLNAYFHQPEAIEEFPVPALHHPVFQQESFTRQVLWKLLKVVKFGEVISYQQLAALAGNPKAARAVGGAMRGNPVPILIPCHRVVCSSGAVGNHSGGLAVKEWLLAHEGHRLGKPGLGGSSGLAGAWLKGAGATSGSPPAGRN | 76.9
* S159F: MGMT polypeptide with mutation S159F (protein) MDKDCEMKRTTLDSPLGKLELSGCEQGLHEIKLLGKGTSAADAVEVPAPAAVLGGPEPLMQCTAWLNAYFHQPEAIEEFPVPALHHPVFQQESFTRQVLWKLLKVVKFGEVISYQQLAALAGNPKAARAVGGAMRGNPVPILIPCHRVVCSSGAVGNYFGGLAVKEWLLAHEGHRLGKPGLGGSSGLAGAWLKGAGATSGSPPAGRN | 22.4

For the molecule N137P: MGMT polypeptide with mutation N137P (protein) MDKDCEMKRTTLDSPLGKLELSGCEQGLHEIKLLGKGTSAADAVEVPAPAAVLGGPEPLMQCTAWLNAYFHQPEAIEEFPVPALHHPVFQQESFTRQVLWKLLKVVKFGEVISYQQLAALAGNPKAARAVGGAMRGPPVPILIPCHRVVCSSGAVGNYSGGLAVKEWLLAHEGHRLGKPGLGGSSGLAGAWLKGAGATSGSPPAGRN , what Relative MGMT activity (%) is on record?
101.1
